target: MAGI2_5, Q86UL8; experiment: holdup assay; design: key: below the threshold = too weak to quantify, mostly under pKd 3.1 to 4; conditions: plain residues with an end cap or a label only (N-terminal biotin on a linker: ado-ado)
Sequence (Q86UL8 915-1017): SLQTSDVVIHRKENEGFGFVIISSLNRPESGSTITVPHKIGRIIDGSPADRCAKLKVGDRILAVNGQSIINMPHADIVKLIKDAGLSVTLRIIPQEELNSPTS
Measurement Name: pKd
One number for each entry.

Examples from the recorded data:
Binder	Reported Result
RDPPAEWTRV [PTPN18, Q99952]	4.72
PPGKHLVTEV [KCNA7, Q96RP8]	4.73
SPDRDRESIV [SCN5A, Q14524]	4.12

Next binder, pKd to be filled in.
Exam item: Fill in: pKd of EKCGKEFSEF [PRKACA, P17612] is ___
Marked response: 3.8
